Assay: Selectivity index, ratio of IC50 for cytotoxicity against human L02 cells to IC50 for anticancer activity against human SW480 cells
Format: toxicity, cell-based
Conditions: L02 cells and SW480 cells, read-out: Ratio IC50
metric: selectivity ratio

INSERT INTO measurements (molecule, recorded_value) VALUES
  ('CCc1c2c(nc3ccc(OC(=O)NCCOCc4cn(CCO[C@H]5O[C@@H](CO)[C@H](O)[C@@H](O)[C@@H]5O)nn4)cc13)-c1cc3c(c(=O)n1C2)COC(=O)[C@]3(O)CC', 9.62);

* * *

Test: Selectivity index, ratio of IC50 for cytotoxicity against human L02 cells to IC50 for anticancer activity against human HCT-116 cells
Format: toxicity, cell-based
Conditions: L02 cells and HCT-116 cells, read-out: Ratio IC50
metric: selectivity ratio

INSERT INTO assay_data (molecule, metric, recorded_value) VALUES
  ('CCc1c2c(nc3ccc(OC(=O)NCCOCc4cn(CCO[C@H]5O[C@@H](CO)[C@H](O)[C@@H](O)[C@@H]5O)nn4)cc13)-c1cc3c(c(=O)n1C2)COC(=O)[C@]3(O)CC', 'selectivity ratio', 5.7);
